Biological target: Caspase-1 (Mus musculus)
Experiment: Inhibitory activity against murine Caspase-1
Endpoint Name: k3/Ki (M⁻¹ s⁻¹)

Molecule	Tested System	k3/Ki (M⁻¹ s⁻¹)
C[C@H](NC(=O)C(=O)Nc1ccccc1Cl)C(=O)N[C@@H](CC(=O)O)C(=O)COC(=O)c1c(Cl)cccc1Cl	Caspase-1 (Mus musculus)	8.31e+06
C[C@H](NC(=O)C(=O)Nc1ccccc1Oc1ccccc1)C(=O)N[C@@H](CC(=O)O)C(=O)COc1c(F)c(F)cc(F)c1F	Caspase-1 (Mus musculus)	960000
C[C@H](NC(=O)C(=O)Nc1ccccc1C(C)(C)C)C(=O)N[C@@H](CC(=O)O)C(=O)COP(=O)(c1ccccc1)c1ccccc1	Caspase-1 (Mus musculus)	2.16e+06
C[C@H](NC(=O)C(=O)Nc1ccccc1C(C)(C)C)C(=O)N[C@@H](CC(=O)O)C(=O)COc1c(F)c(F)cc(F)c1F [EMRICASAN]	Caspase-1 (Mus musculus)	689000

[a] C[C@H](NC(=O)C(=O)Nc1ccccn1)C(=O)N[C@@H](CC(=O)O)C(=O)COc1c(F)c(F)cc(F)c1F
[b] C[C@H](NC(=O)C(=O)NCc1ccccc1)C(=O)N[C@@H](CC(=O)O)C(=O)COc1c(F)c(F)cc(F)c1F
[c] C[C@H](NC(=O)C(=O)Nc1ccccc1C(C)(C)C)C(=O)N[C@@H](CC(=O)O)C(=O)COC(=O)c1c(Cl)cccc1Cl
With regard to k3/Ki, arrange the entries in ascending order, please. # list labels per requested ordering
a, b, c
(a: 468000 M⁻¹ s⁻¹, b: 674000 M⁻¹ s⁻¹, c: 8.33e+06 M⁻¹ s⁻¹)
